Source of measurements: paper PMC9457798

Test summary: in vitro
Run parameters: mouse, microsomes, pH 7.4
Reported metric: half-life at 1 µM (h)
I only need the number, in h, no unit after it.

Recorded half-life at 1 µM (compound NC(=O)N1c2ccccc2C=Cc2ccccc21 [Carbamazepine, reference compound] ): 2.17

----------
Test summary: in vitro
Run parameters: mouse, microsomes, pH 7.4
Reported metric: remaining at 0.5 h, 1 µM (%)
I only need the number, in %, no unit after it.

Recorded remaining at 0.5 h, 1 µM (compound NC(=O)N1c2ccccc2C=Cc2ccccc21 [Carbamazepine, reference compound] ): 85.2

----------
Test summary: In vitro microsomal stability, mouse liver microsomes
Run parameters: mouse, liver microsomes, pH 7.4
Reported metric: microsomal CLint at 1 µM (µL/min/mg)
I only need the number, in µL/min/mg, no unit after it.

Recorded microsomal CLint at 1 µM (molecule COc1cc(C=Nc2c(C#N)nc3c(-c4cc(OC)c(OC)c(OC)c4)nc4ccccc4n23)cc(OC)c1OC ): 38

----------
For each of the molecules below, state its half-life at 1 µM.
Test summary: In vitro microsomal stability, human liver microsomes
Assay type: in vitro ADME
Run parameters: human, liver microsomes, pH 7.4; 1 µM, 0.5 mg/mL microsomes, NADPH; read-out: t½ HLM
I only need the number, in h, no unit after it.

Recorded half-life at 1 µM (molecule COc1cc(C=Nc2c(C#N)nc3c(-c4cc(OC)c(OC)c(OC)c4)nc4ccccc4n23)cc(OC)c1OC ): 0.287

Recorded half-life at 1 µM (molecule NC(=O)N1c2ccccc2C=Cc2ccccc21 [Carbamazepine, reference compound] ): 7.97

----------
Test summary: In vitro microsomal stability, mouse liver microsomes
Run parameters: mouse, liver microsomes, pH 7.4
Reported metric: remaining at 0.5 h, 1 µM (%)
I only need the number, in %, no unit after it.

Recorded remaining at 0.5 h, 1 µM (compound COc1cc(C=Nc2c(C#N)nc3c(-c4cc(OC)c(OC)c(OC)c4)nc4ccccc4n23)cc(OC)c1OC ): 56.2

----------
Test summary: in vitro
Run parameters: mouse, microsomes, pH 7.4
Reported metric: microsomal CLint at 1 µM (µL/min/mg)
I only need the number, in µL/min/mg, no unit after it.

Recorded microsomal CLint at 1 µM (molecule NC(=O)N1c2ccccc2C=Cc2ccccc21 [Carbamazepine, reference compound] ): 11
